Reference source: the supplement of paper PMC8253809

test system: DIPGX29 (H3.3 K27M diffuse intrinsic pontine glioma line); assay: area under dose-response curve of % growth inhibition (log2 RLU vs DMSO / staurosporine), 1e-11 to 1e-4 M (% x log10 M); higher = more growth inhibition
Measurement name: area under dose-response curve
Field format: numeric only.

{"Compound": "O=C(c1ccc(OCCN2CCCCC2)cc1)c1c(-c2ccc(O)cc2)sc2cc(O)ccc12", "area under dose-response curve": 63.5}
{"Compound": "CO[C@H]1C[C@@H]2CC[C@@H](C)[C@@](O)(O2)C(=O)C(=O)N2CCCC[C@H]2C(=O)O[C@H]([C@H](C)C[C@@H]2CC[C@@H](OCCO)[C@H](OC)C2)CC(=O)[C@H](C)/C=C(\\C)[C@@H](O)[C@@H](OC)C(=O)[C@H](C)C[C@H](C)/C=C/C=C/C=C/1C", "area under dose-response curve": 95.9}
{"Compound": "C[C@@H]1O[C@@H](O[C@H]2C[C@@H](O)[C@]3(CO)[C@H]4[C@H](O)C[C@]5(C)[C@@H](C6=CC(=O)OC6)CC[C@]5(O)[C@@H]4CC[C@]3(O)C2)[C@H](O)[C@H](O)[C@H]1O", "area under dose-response curve": 175}

Challenge: Request the reported area under dose-response curve associated with CC(C)OC(=O)C(C(=O)OC(C)C)=C1SC=CS1 [MALOTILATE]
Response given: 30.3

Challenge: Request the reported area under dose-response curve associated with O=c1[nH]c(=O)n([C@H]2C[C@H](O)[C@@H](CO)O2)cc1/C=C/Br
Response given: 6.05

Challenge: Request the reported area under dose-response curve associated with CN(C(=O)CN(CCO)CC(=O)N(C)C(C)(C)Cc1ccccc1)C(C)(C)Cc1ccccc1
Response given: 63
